- study_target: DYRK1A kinase (Homo sapiens (Human), UniProt Q13627)
- test_method_notes: DYRK1A kinase assay (Ser/Thr 18 peptide Z-lyte FRET)
- Format: biochemical
- details: read-out: EC50 (method: IC50)
pIC50: −log10 of the molar value.
observed_property: pIC50

[[record]]
molecular_string = "O=C(Nc1ccc(OC(F)F)cc1)c1n[nH]c2ccc(-c3cnn(C4CCNCC4)c3)cc12"
meas_value = 7.43

[[record]]
molecular_string = "O=C(Nc1ccc(OC(F)F)nc1)c1n[nH]c2ccc(-c3cnn(CCN4CCOCC4)c3)cc12"
meas_value = 6.48


(a) CN1CCC(n2cc(-c3ccc4[nH]nc(C(=O)Nc5ccc(OC(F)F)cc5)c4c3)cn2)CC1
(b) CN1CCC(Oc2ccc(NC(=O)c3n[nH]c4c(F)cc(-c5cnn(C)c5)cc34)cn2)CC1
(c) Cn1cc(-c2ccc3[nH]nc(C(=O)NC4CCC(F)(F)CC4)c3c2)cn1
(d) CN1Cc2ccc(NC(=O)c3n[nH]c4cc(F)c(-c5cnn(C)c5)cc34)cc2C1
(e) Cc1cc(NC(=O)c2n[nH]c3ccc(-c4cnn(C5CCN(C)CC5)c4)cc23)sn1
Problem: Kindly order the items shown according to pIC50, from the highest value down. Present the labels in the sequence the task asks for.
Solution: d, e, c, b, a

(1) CC(C)CN1CC[C@H](NC(=O)c2n[nH]c3ccc(-c4cnn(C)c4)cc23)[C@H](F)C1
(2) CN1CCC(Oc2ccc(NC(=O)c3n[nH]c4ccc(-c5cnn(C)c5)cc34)cn2)CC1
(3) CN1CCC(Nc2ccc(NC(=O)c3n[nH]c4cc(F)c(-c5cnn(C)c5)cc34)cc2)CC1
(4) Cc1noc(C)c1-c1ccc2[nH]nc(C(=O)NC3CCN(CC(C)(C)F)CC3)c2c1
Problem: Kindly order the items shown according to pIC50, from the highest value down. Present the labels in the sequence the task asks for.
Solution: 2, 3, 1, 4

* * *

- study_target: DYRK1A kinase (Homo sapiens (Human), UniProt Q13627)
- test_method_notes: DYRK1A kinase assay (Ser/Thr 18 peptide Z-lyte FRET)
- Assay type: biochemical
- details: read-out: EC50 (method: IC50)
observed_property: IC50 (nM)

[[record]]
molecular_string = "C[C@H](NC(=O)c1n[nH]c2ccc(-c3cnn(C)c3)cc12)C(F)(F)F"
uom = "nM"
meas_value = 26

[[record]]
molecular_string = "Cn1cc(-c2cc3c(C(=O)Nc4ccc(CN5CCOCC5)cc4)n[nH]c3cc2F)cn1"
uom = "nM"
meas_value = 4


(a) CC(C)CN1CC[C@@H](NC(=O)c2n[nH]c3ccc(-c4cnn(C)c4)cc23)[C@H](F)C1
(b) O=C(Nc1ccc(Cl)cc1)c1n[nH]c2cc(F)c(-c3cnn(C4CCNCC4)c3)cc12
Problem: Please compare: a and b . Report which one has the smaller IC50 value. Reply briefly: the label of your chosen item.
Solution: a

* * *

- study_target: GSK3β kinase (Homo sapiens (Human), UniProt P49841)
- Sequence (P49841 whole entry): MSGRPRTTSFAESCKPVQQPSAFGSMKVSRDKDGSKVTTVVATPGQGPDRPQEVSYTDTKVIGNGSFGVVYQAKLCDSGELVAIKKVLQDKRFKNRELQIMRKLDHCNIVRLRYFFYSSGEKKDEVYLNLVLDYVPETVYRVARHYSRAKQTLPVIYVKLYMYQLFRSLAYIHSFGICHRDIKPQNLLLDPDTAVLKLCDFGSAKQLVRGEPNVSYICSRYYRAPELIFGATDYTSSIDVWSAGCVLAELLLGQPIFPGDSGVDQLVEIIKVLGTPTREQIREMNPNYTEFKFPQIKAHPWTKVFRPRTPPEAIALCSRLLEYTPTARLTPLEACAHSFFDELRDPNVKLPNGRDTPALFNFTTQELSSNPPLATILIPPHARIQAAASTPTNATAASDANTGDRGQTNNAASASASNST
- test_method_notes: GSK3β kinase assay (Ser/Thr 09 peptide Z-lyte FRET)
- Format: biochemical
- details: read-out: EC50 (method: IC50)
observed_property: IC50 (nM)

[[record]]
molecular_string = "Cc1cnc(NC(=O)c2n[nH]c3ccc(-c4cnn(C5CCN(C)CC5)c4)cc23)s1"
meas_value = 6440

[[record]]
molecular_string = "CN1CCC(Oc2ccc(NC(=O)c3n[nH]c4cc(F)c(-c5ccn(C)n5)cc34)cc2)CC1"
meas_value = 3260

[[record]]
molecular_string = "CC[C@H](NC(=O)c1n[nH]c2ccc(-c3cnc(C)n3C)cc12)C(F)(F)F"
meas_value = 106

[[record]]
molecular_string = "Cc1ncc(NC(=O)c2n[nH]c3cc(F)c(-c4cnn(C5CCN(C)CC5)c4)cc23)s1"
meas_value = 245

[[record]]
molecular_string = "Cn1cc(-c2cc(F)c3[nH]nc(C(=O)NC4CCN(CC(F)F)CC4)c3c2)cn1"
meas_value = 86

[[record]]
molecular_string = "CC(C)CN1CC[C@H](NC(=O)c2n[nH]c3ccc(-c4cn[nH]c4)cc23)[C@@H](F)C1"
meas_value = 41

[[record]]
molecular_string = "Cn1cc(-c2ccc3[nH]nc(C(=O)N[C@@H]4CCCC[C@H]4F)c3c2)cn1"
meas_value = 6

[[record]]
molecular_string = "Cc1ncc(NC(=O)c2n[nH]c3ccc(-c4cnn(C5CCN(C)CC5)c4)cc23)s1"
meas_value = 208


(I) Cc1c(-c2ccc3[nH]nc(C(=O)NC4CCC(F)(F)CC4)c3c2)cnn1C
(II) CN1CCC(Oc2ccc(NC(=O)c3n[nH]c4c(F)cc(-c5cnn(C)c5)cc34)cc2)CC1
(III) CC(C)CN1CC[C@H](NC(=O)c2n[nH]c3ccc(-c4cnn(C)c4)cc23)[C@@H](F)C1
Problem: Reorder the items by IC50, least to greatest. Present the labels in the sequence the task asks for.
Solution: I, III, II
